# Test system: LOC_OS01G60700-cb002
# experimental.details: thermal shift delta Tm vs DMSO control; higher = stronger stabilization (binding);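 further: purified Escherichia coli-expressed rice kinase domain construct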
# test.parameters: 12.5 µM; protein concentration 2 µM
Counter-ions that a name gives are not always drawn.
Outcome label depends on thermal shift delta Tm relative to 0.4 °C: at/above gives y, below gives n.

CCNC(=O)C#Cc1ccc2c(C(=Nc3ccc(CN(C)C)cc3)c3ccccc3)c(O)[nH]c2c1; n
Cc1ccc(NC(=O)c2ccc(CN3CCN(C)CC3)cc2)cc1Nc1nccc(-c2cccnc2)n1 [Imatinib Mesylate (STI571)]; y
CCCCOc1c(C(=O)c2c(F)cc(C)cc2F)c[nH]c2nncc1-2; n
O=c1cc(N2CCOCC2)oc2c(-c3ccc4c(c3)OCCO4)csc12; n
CCOc1cc(C(=O)N2CCC(N3CCN(C)CC3)CC2)ccc1Nc1ncc2c(n1)N(C1CCCC1)c1ccccc1C(=O)N2C; y
CCCS(=O)(=O)Nc1ccc(F)c(C(=O)c2c[nH]c3ncc(Cl)cc23)c1F; y
Cn1cnc(N)c2ncnc1-2; y
O=c1ccc2ccc(O)c(O)c2o1; y
FC(F)(F)c1ccc(Nc2nc3ccc(Oc4ccnc(-c5ncc(C(F)(F)F)[nH]5)c4)cc3[nH]2)cc1; n

* * *

# Tested on: LOC_OS01G60700-cb002
# experimental.details: thermal shift delta Tm vs DMSO control; higher = stronger stabilization (binding)
# test.parameters: 12.5 µM; protein concentration 2 µM
quantity.measured: thermal shift delta Tm

COc1cc2ncnc(Sc3nnc(C)s3)c2cc1OC; 0.74 °C
Cc1ncc(CCCN(C)C)cc1Nc1ncc2c(n1)-c1ccc(C(F)(F)F)cc1NC(=S)C2; 1.39 °C
CNC(=O)c1nn(C)c2c1C(C)(C)Cc1cnc(Nc3ccc(N4CCN(C)CC4)cc3)nc1-2; 0.69 °C
COc1cc(Nc2ncc(F)c(Nc3ccc4c(n3)NC(=O)C(C)(C)O4)n2)cc(OC)c1OC; 0.57 °C
C=CC(=O)Nc1cc(Nc2nccc(-c3cn(C)c4ccccc34)n2)c(OC)cc1N(C)CCN(C)C; 1.16 °C
CCn1c(C(=O)N(C2CC2)C2CC2)cc2c3c(ncn3C)c(Nc3cc(C)n(C)n3)nc21; 1.61 °C
C1=N/C2=N/c3ccc(OCCN4CCCC4)c(c3)COC/C=C/COCc3cccc(c3)C(=C1)N2 [Pacritinib (SB1518)]; 0.7 °C
Nc1cccc(S(=O)(=O)N2CCCN(S(=O)(=O)c3ccc4c(c3)OCCO4)CC2)c1; 0.59 °C
O=C1NC(=O)C(c2cnc3ccccn23)=C1c1cn2c3c(cc(F)cc13)CN(C(=O)N1CCCCC1)CC2; 2.25 °C
COc1cc(N2CCN(C)CC2)ccc1Nc1nccc(-c2cn(C)c3cnccc23)n1; 1.01 °C

* * *

# System: LOC_OS05G07850-cb002
# experimental.details: thermal shift delta Tm vs DMSO control; higher = stronger stabilization (binding)
# test.parameters: 12.5 µM; protein concentration 2 µM
Below, each of the molecules is paired with its reported thermal shift delta Tm value.
quantity.measured: thermal shift delta Tm

CCCCCCCCCCCCCCCCn1cc[n+](Cc2ccccc2)c1C; 0.19 °C
Nc1nccc(Oc2ccc3c(C(=O)Nc4cccc(C(F)(F)F)c4)cccc3c2)n1; -1.62 °C
CO[C@H]1C[C@@H]2CC[C@@H](C)[C@@](O)(O2)C(=O)C(=O)N2CCCC[C@H]2C(=O)O[C@H]([C@H](C)C[C@@H]2CC[C@@H](OC(=O)C(C)(CO)CO)[C@H](OC)C2)CC(=O)[C@H](C)/C=C(\C)[C@@H](O)[C@@H](OC)C(=O)[C@H](C)C[C@H](C)/C=C/C=C/C=C/1C; 0.18 °C
Cc1n[nH]c2ncc(C(=O)N3CCC[C@H]3c3ccc(Cl)cc3)cc12; 0.81 °C

* * *

# Test system: LOC_OS01G01410-cb001
# experimental.details: thermal shift delta Tm vs DMSO control; higher = stronger stabilization (binding)
# test.parameters: 12.5 µM; protein concentration 2 µM
Decide using thermal shift delta Tm: a value greater than or equal to 1 °C is rule met, a smaller one is rule not met.

Cc1nc(Nc2n[nH]c3c2CN(C(=O)N[C@H](CN(C)C)c2ccccc2)C3(C)C)c2sccc2n1; rule not met
Nc1ncnc2n[nH]c(Nc3ccc(F)cc3)c12; rule met
CCNc1nc(Nc2cc(F)c(C(=O)N3CCOCC3)cc2OC)ncc1C(F)(F)F; rule not met
CN(C[C@@H]1COCCO1)S(=O)(=O)Nc1ccc2ccc3ncc(-c4cnn(C)c4)cc3c(=O)c2c1; rule met
O=C(NOCCO)c1ccc2cncn2c1Nc1ccc(I)cc1F; rule met
Cc1cc(Nc2ncc(Cl)c(Nc3ccccc3S(=O)(=O)C(C)C)n2)c(OC(C)C)cc1C1CCNCC1; rule not met

* * *

# System: LOC_OS01G39600-cb002
# experimental.details: thermal shift delta Tm vs DMSO control; higher = stronger stabilization (binding)
# test.parameters: 12.5 µM; protein concentration 2 µM
Each entry gets criterion not met if its thermal shift delta Tm stays under 0.5 °C, and criterion met if its thermal shift delta Tm is 0.5 °C or above.

CN1CC[C@H](c2c(O)cc(O)c3c(=O)cc(-c4ccccc4Cl)oc23)[C@H](O)C1 [Flavopiridol (Alvocidib)]; criterion met
NC(=O)c1ccc(N(C(N)=O)c2c(F)cccc2F)nc1-c1ccc(F)cc1F; criterion not met
COc1cc2ccc(=O)oc2cc1O; criterion not met
O=c1cc(N2CCOCC2)oc2c(-c3ccc4c(c3)OCCO4)csc12; criterion not met
CC(C)(C)NS(=O)(=O)c1cncc(-c2cc(F)c3nc(N)nn3c2)c1; criterion met
Cc1cc(C(=O)Nc2nc3cccc(Cl)c3n2[C@@H]2CCCCN(C(=O)/C=C/CN(C)C)C2)ccn1 [Nazartinib (EGF816, NVS-816)]; criterion met
O=C(NOCCO)c1ccc2cncn2c1Nc1ccc(I)cc1F; criterion not met
O=C1Cc2c([nH]c3ccc(Br)cc23)-c2ccccc2N1; criterion met
COc1ccc(F)c(F)c1C(=O)c1cnc(NC2CCN(S(C)(=O)=O)CC2)nc1N; criterion not met
c1nc2c(NC3CCCCC3)nc(Nc3ccc(N4CCOCC4)cc3)nc2[nH]1; criterion met
COc1cccc(-c2cc(=O)c3ccccc3o2)c1N; criterion met
COc1ccc(C(=O)Nc2sc3c(c2C(N)=O)CCCC3)cc1OC; criterion not met
C=CC(=O)N1CCC[C@@H](n2nc(-c3ccc(Oc4ccccc4)cc3)c3c(N)ncnc32)C1; criterion met
NC[C@@](O)(c1ccc(Cl)cc1)c1ccc(-c2cn[nH]c2)cc1; criterion not met

* * *

# System: LOC_OS02G07810-cb001
# experimental.details: thermal shift delta Tm vs DMSO control; higher = stronger stabilization (binding)
# test.parameters: 12.5 µM; protein concentration 2 µM
Threshold rule: thermal shift delta Tm greater than or equal to 0.5 °C is Satisfied; below that, Not satisfied.

CN1CCN(c2ccc(OC(F)(F)F)c(Nc3ncc4c(n3)-c3c(c(C(N)=O)nn3CCO)CC4)c2)CC1; Not satisfied
COC(=O)Nc1ccc(-c2nc(N3CCOCC3)c3cnn(C4CCN(C(=O)OC)CC4)c3n2)cc1; Satisfied
Cc1cnc(NC(=O)Nc2cc(Br)c(C)cc2OC[C@@H]2CNCCO2)cn1; Not satisfied
CNCc1ccc(-c2cc(-c3nc(-c4ccc(S(=O)(=O)C(C)C)cc4)cnc3N)on2)cc1; Satisfied
O=C(O)c1ccc(Nc2ncc3c(n2)-c2ccc(Cl)cc2C(c2c(F)cccc2F)=NC3)cc1; Not satisfied
Cc1csc(-c2nnc(Nc3ccc(Oc4ncccc4-c4ccnc(N)n4)cc3)c3ccccc23)c1; Satisfied
Cc1cc(Nc2nc(N[C@@H](C)c3ccc(F)cc3)c(C#N)cc2F)n[nH]1; Not satisfied
COc1ccc(CC(=O)Nc2nc3c(s2)CCc2ccccc2-3)cc1OC; Not satisfied

* * *

Below, each of the compounds is paired with its reported thermal shift delta Tm value.
# System: LOC_OS05G43570-cb004
# experimental.details: thermal shift delta Tm vs DMSO control; higher = stronger stabilization (binding)
# test.parameters: 12.5 µM; protein concentration 2 µM
Where a name gives a salt, the structure may show the parent alone.
quantity.measured: thermal shift delta Tm (°C)

OC1CCC(Oc2cccc3cnc(Nc4ccc5nc[nH]c5c4)nc23)CC1 (stereo not drawn); 1.07
C[C@H](NC(=O)c1c(N)nn2cccnc12)c1cc2cccc(C#Cc3cnn(C)c3)c2c(=O)n1-c1ccccc1; 0.11
Cc1c(CN2CCN(C(=O)[C@H](C)O)CC2)sc2c(N3CCOCC3)nc(-c3cnc(N)nc3)nc12; 1.24
Cc1ncc(CO)c(CO)c1O; 0.36
O=c1cc(N2CCOCC2)oc2c(-c3ccccc3)cccc12; 0.98
C[C@@H]1COC(Nc2ccc3ncnc(Nc4ccc(OCc5nccs5)c(Cl)c4)c3c2)=N1; 0.53
COc1cc2c(c(OC)c1OC)-c1c(cc3c(c1OC)OCO3)CC(C)C(C)C2 (stereo not drawn) [Schisandrin B (Sch B)]; 0.14
CCNC(=O)Nc1ccc(-c2nc3c(c(N4CCOC[C@@H]4C)n2)CCN(C2COC2)C3)cc1; 0.3
CC[C@@H]1C(=O)N(C)c2cnc(Nc3ccc(C(=O)NC4CCN(C)CC4)cc3OC)nc2N1C1CCCC1; 0.24
Cc1c[nH]c2nc(Nc3ccc(N4CCN(C)CC4)c(F)c3)nc(-c3cccc(CC#N)c3)c12; 1.16
CCn1c(N)c(C(=O)NC)c(=O)c2ccc(C#CC(C)(O)COC)nc21 (stereo not drawn); 0.13
Cc1c[nH]c(/C=C2\C(=O)Nc3ccccc32)c1CCC(=O)O; 0.11
COc1cc2c3cc1Oc1c(OC)c(OC)cc4c1[C@@H](Cc1ccc(O)c(c1)Oc1ccc(cc1)C[C@@H]3N(C)CC2)N(C)CC4 [Berbamine (dihydrochloride)]; 0.27
CC(C)n1ncnc1-c1cn2c(n1)-c1ccc(O[C@@H](C)C(N)=O)cc1OCC2; 0.23
CC(=O)Nc1nc(C)c(-c2ccc(Cl)c(S(=O)(=O)NCCO)c2)s1; 0.87
Cc1cn(-c2cc(NC(=O)c3ccc(C)c(Nc4nccc(-c5cnccn5)n4)c3)cc(C(F)(F)F)c2)cn1; 0.62
CC(C)(O)CNc1ncc(-c2ccnc(Nc3ccncc3)n2)c(CC2CC2)n1; 0.5
Cc1c(C(=O)Nc2ccc(Oc3ccnc4[nH]cc(-c5ccccc5)c34)c(F)c2)c(=O)n(-c2ccc(F)cc2)n1C; 0.25
O=c1nc(N2CCOCC2)oc2c(-c3cccc4c3sc3ccccc34)cccc12; -0.65
CCN(CC)CCNC(=O)c1c(C)[nH]c(/C=C2\C(=O)Nc3ccc(F)cc32)c1C [Sunitinib Malate]; 0.2
COc1cc2ncnc(Sc3nnc(C)s3)c2cc1OC; 0.17
CNC(=O)c1ccc(-c2cnc3ncc(Cc4ccc5ncccc5c4)n3n2)cc1F; 0.63
COc1ccc(S(=O)(=O)N(C(C)=O)c2ccccc2/C=C/c2cc[n+]([O-])cc2)cc1; 0.45
